The reported measurements were obtained from patent KR20210056931A.

Entries and their TNF-α expression values follow.
System: TNF-α
assay_text: TNF-α expression inhibition in Raw264.7, comparison with DMARDs, Experiment 2-1
Assay type: cell-based
protocol_conditions: 6 h pretreatment; LPS 10 ng/mL, 24hr; MTX 344 nM, HCQ 610 nM, PYR 50 ng/mL, CsA 391 ng/mL, AZA 25 ng/mL, SFZ 750 ng/mL

compound: CN(Cc1cnc2nc(N)nc(N)c2n1)c1ccc(C(=O)N[C@@H](CCC(=O)O)C(=O)O)cc1 [메토트렉세이트, Methotrexate]
endpoint_unit: pg/mL
TNF-α expression: 3464.6
//
compound: Cn1cnc([N+](=O)[O-])c1Sc1ncnc2nc[nH]c12 [AZA, Azathioprine]
endpoint_unit: pg/mL
TNF-α expression: 3539.9
//
compound: CCc1nc(N)nc(N)c1-c1ccc(Cl)cc1 [피리메타민, Pyrimethamine]
endpoint_unit: pg/mL
TNF-α expression: 963.4
//
compound: CCN(CCO)CCCC(C)Nc1ccnc2cc(Cl)ccc12 (centres unmarked) [히드록시클로로퀸, Hydroxychloroquine]
endpoint_unit: pg/mL
TNF-α expression: 3564.6
//
compound: O=C(O)c1cc(/N=N/c2ccc(S(=O)(=O)Nc3ccccn3)cc2)ccc1O [SFZ, Sulfasalazine]
endpoint_unit: pg/mL
TNF-α expression: 3578.2
